# assay-text: Cmax in healthy subjects
# assay-setup: human, in vivo, doses of 0.3 mg and 1.0 mg
endpoint-name: Cmax

* O=C1CC[C@H](N2Cc3c(OCc4ccc(CN5CCOCC5)cc4)cccc3C2=O)C(=O)N1 | 2.41 to 11.8 nM
